experiment: yeast display, Sf9 membrane polyspecificity reagent, FACS + sequencing; frameworks hold sequencing errors
EXPERIMENTAL READOUT: polyreactivity (PSR sort gate)

Please review the entries below; each comes with its answer.
[[record]]
sequence_data = "QVQLVESGGGLVQAGGSLRLSCAASGSIFGFYAMGWYRQAPGKERELVAAITYSGGSTYADSVKGRFTISRDNAKNTVYLQMNSLKPEDTAVYYCAKDAELDITDAFYYWGQGTQVTVSS"
recorded_value = "low polyreactivity"

[[record]]
sequence_data = "QVQLVESGGGLVQAGGSHRLSCAASGSILDTYAMGWYRQAPGKERELVAAISRGGRTYYADSVKGRFTLSRDNAKNTVYLQMNSLKPEDTAVYYCNTLTRLVYDGMGYWGQGTQVTVSS"
recorded_value = "high polyreactivity"

[[record]]
sequence_data = "QVQLVESAGGLVQAGGSLRLSCDASGRIFTIYAMGWYSQAPGKERELVAAIRSSGDRTYYADSVKGRFTISRDNAKNTVYLQMNSQKPEDTAVYYCAARTRGGYYWGQGTQVTVSS"
recorded_value = "high polyreactivity"

[[record]]
sequence_data = "QDQLVESGGGLVQAGGRLRLSCAASGFIFYSYVMGRYRQAPGKERELVASIRSRGGSTYYADSVKGRFTISRDNAKNTVYLQMNSLKPEDTAVYYCAADLYLSPSWYKYDYWGQGTQVTVSS"
recorded_value = "low polyreactivity"


As a next step, examine the sequence that follows.
// lookup polyreactivity (PSR sort gate) for QVQLVESGGGLVQAGGSLRLSCAASGRIFTLYAMGWYRQAPGKEREFVAAINRGGSTNYADSVKGRFTISRDNAKNTVYLQMNSLKPEDTAVYYCAAKTTSRFRTYSYDYWGQGTQVTVSS
high polyreactivity

---

experiment: yeast display, Sf9 membrane polyspecificity reagent, FACS + sequencing; frameworks hold sequencing errors
EXPERIMENTAL READOUT: polyreactivity (PSR sort gate)

[[record]]
sequence_data = "QLQLVESGGRLVQAGGSLRLSCAATGFTFGGYAMGWYRQAPGKESELVARIRRSGGSTYYADSVKGRFTISRDNAKNTVYLQMTSLKPEDTAVYYCAAGYSRGQYRYNYWGQGTQVTVSS"
experimental_readout = "polyreactivity (PSR sort gate)"
recorded_value = "high polyreactivity"

[[record]]
sequence_data = "QVQLVESGGGLVQAGGSLRLSCAASGITFSFYAMGWYRQAPGKERELVAGLTRSGGDTYYADSVKGRFTISRDNAKNTVYLQMNSLKPEDTAVYYCAAAWFFYRRQYTFFAGRMDYWGQGTQVTVSS"
experimental_readout = "polyreactivity (PSR sort gate)"
recorded_value = "high polyreactivity"


---

experiment: yeast display, Sf9 membrane polyspecificity reagent, FACS + sequencing; frameworks hold sequencing errors
EXPERIMENTAL READOUT: polyreactivity (PSR sort gate)

Please review the entries below; each comes with its answer.
[[record]]
sequence_data = "QVQLVESGGGLVQAGGSLRLSCAASGFTYFYAMGWYRQAPGKERELVATITINGGRTYYADSVKGRFTISRDNAKNTVYLQMNSLKPEDTAVYYCAAKSWYSYGDWGYYSWGQGTQVTVSS"
recorded_value = "high polyreactivity"

[[record]]
sequence_data = "QVQLVESGGGLVQAGGSLRLSCAASGLTFVDNAMGWYRQAPGQERELVAAITKRGGRTYYADSVKGRFTISRDNAKNTVYLQMNSLKPEDTAVNYCARESGNDSSRRLDYWGQGSQVTVSS"
recorded_value = "low polyreactivity"

[[record]]
sequence_data = "QVQLVESGGGLVQAGGSLRLSCAASGFTFGRYAMGWYRQAPGKEREFVAAITWSGGGTYYADSVKGRFTISRDNAKYTVYLQMYSLKPEDTAVYYCAADRRAYGGGYWGQGTQVTVSS"
recorded_value = "high polyreactivity"

[[record]]
sequence_data = "QVQLVESGGGLVQAGGSLRLSCAASGRTLSKNAMGWYRQAPGKERELVATISSVGRTNYADSVKGRFTISRDNAKNTVYLQMNSLKPVDTAVYYCAARRFRGSYYWGLGTQVTVSS"
recorded_value = "high polyreactivity"

[[record]]
sequence_data = "QVQLVESGVGLVQAGGSLRLSCAASGSILSKNAMAWYREAPGNERELVAAITWSGGSTYYADSVKGRFTISRDNEKNTVYLQMNSLKPEDTAVSYCAADLDWSPHFGLPYDYWGQGTQVTVSS"
recorded_value = "low polyreactivity"


// lookup polyreactivity (PSR sort gate) for EVQLVESGGGLVQPGGSLRLSCASSGYIYRRYRMGRYRQAPGKGREFVAAISGGSSTNYADSVKGRFTISRDNSKNTLYLQMKSLRAEDTAVYYCEGYKIDSDPRVYWGQGTQVTVSS
low polyreactivity

// lookup polyreactivity (PSR sort gate) for QVQHVESGGGLVQAGGSLRLSCAASGSTFPTYAMGWYRQAPGKERELVADITWSGGSTYYADSVKGRFTISRDNAKNTVYLQMNSLKPEDTAVYYCNAAHRKGMYYWGQGTQVTVSS
high polyreactivity

// lookup polyreactivity (PSR sort gate) for QVQLVESGGGLVQEGGSLRLSCAASGITFSVYTMGRYRQAPGKERELVASITRTGGSTYYADSVKGRFTISRDNAKNTVYLQMNSLNPEDTAVYYCAARRTVVTGRYYWGQGTQVTVSS
high polyreactivity

// lookup polyreactivity (PSR sort gate) for QVQLVESGGGLVQAGGSLRLSCAASGSIYPYNAIGLYRQAPGKERELVAAISYRGGRTYYADSVMGRFTISRDNAKNTVYLQKNSLKPEDTAVYYCNADSIYSARGWLYGYWGQGTQVTVSS
low polyreactivity

// lookup polyreactivity (PSR sort gate) for QVQLEESGGGLVQAGGSLRLTCDASGLIFSYYAMGWYRQAPGKERELVAAITGSGGTTYYADSVKGRFTISRDNAKNTVLLQMNSLKPEDTAVYYCATPPPEVWQRWYREYDYWGQGTQVTVSS
low polyreactivity

// lookup polyreactivity (PSR sort gate) for QVQLVESGGGLVQAGGSLRLSCAASVRTFSAYAMGCSRQAPGKERELVARITSVDSTNYSDSVNGRFTFSRDNAKNNVYLQMNSLKPEDTAVYSCNATFGYPFVDYDDYWGQGTQVTVSS
low polyreactivity
